Attribution: patent US20250163162A1

# assayed.system: T1, IL10Rα/IL2Rγ receptor (human) (UniProt Q13651)
# T1 sequence (looked up) 1: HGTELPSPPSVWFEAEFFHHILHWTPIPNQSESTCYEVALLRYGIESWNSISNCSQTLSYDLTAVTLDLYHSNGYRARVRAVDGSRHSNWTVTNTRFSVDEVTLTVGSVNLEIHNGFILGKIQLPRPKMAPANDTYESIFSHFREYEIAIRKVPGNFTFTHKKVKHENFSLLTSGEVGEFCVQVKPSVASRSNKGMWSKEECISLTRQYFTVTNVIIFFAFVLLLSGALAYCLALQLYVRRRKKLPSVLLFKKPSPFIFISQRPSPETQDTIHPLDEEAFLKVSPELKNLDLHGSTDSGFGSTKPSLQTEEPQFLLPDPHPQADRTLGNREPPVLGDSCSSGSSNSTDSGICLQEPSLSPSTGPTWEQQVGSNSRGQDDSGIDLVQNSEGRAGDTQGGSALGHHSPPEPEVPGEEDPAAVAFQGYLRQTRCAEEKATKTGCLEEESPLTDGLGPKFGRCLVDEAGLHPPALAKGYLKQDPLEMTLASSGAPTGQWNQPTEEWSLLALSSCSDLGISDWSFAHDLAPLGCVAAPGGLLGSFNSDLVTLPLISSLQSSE
# T1 sequence (looked up) 2: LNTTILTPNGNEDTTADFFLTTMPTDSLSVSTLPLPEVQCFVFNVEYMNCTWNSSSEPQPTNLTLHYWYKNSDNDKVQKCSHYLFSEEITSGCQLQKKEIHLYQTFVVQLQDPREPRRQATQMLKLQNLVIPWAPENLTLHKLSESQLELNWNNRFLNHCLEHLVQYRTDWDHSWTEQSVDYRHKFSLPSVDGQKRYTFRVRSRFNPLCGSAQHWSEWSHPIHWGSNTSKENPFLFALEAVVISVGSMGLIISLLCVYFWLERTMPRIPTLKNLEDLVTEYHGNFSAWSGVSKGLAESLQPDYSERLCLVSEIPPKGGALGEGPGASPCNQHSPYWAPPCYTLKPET
# assay.summary: cell-based or functional assay
quantity.measured: IFNγ secretion, CD8 T cells, at 0.0001 µM (pg/mL)
Answers are plain numbers, in pg/mL.

binder	test.value
hIL10Ra_VHH14 - hIL2Rg_VHH19, No linker, tag his (bispecific antibody, not shown: small tags and cut ends) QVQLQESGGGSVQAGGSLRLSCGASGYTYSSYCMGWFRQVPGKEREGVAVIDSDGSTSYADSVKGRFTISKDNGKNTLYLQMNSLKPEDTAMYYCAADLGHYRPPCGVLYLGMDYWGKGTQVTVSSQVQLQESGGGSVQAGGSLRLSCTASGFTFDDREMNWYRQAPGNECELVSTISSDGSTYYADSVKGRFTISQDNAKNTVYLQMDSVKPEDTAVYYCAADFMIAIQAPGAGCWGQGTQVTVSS	102000

Need IFNγ secretion, CD8 T cells, at 0.0001 µM for each of these binders.
1. hIL10Ra_VHH14 - hIL2Rg_VHH19, linker …, tag his (bispecific antibody, not shown: small tags and cut ends) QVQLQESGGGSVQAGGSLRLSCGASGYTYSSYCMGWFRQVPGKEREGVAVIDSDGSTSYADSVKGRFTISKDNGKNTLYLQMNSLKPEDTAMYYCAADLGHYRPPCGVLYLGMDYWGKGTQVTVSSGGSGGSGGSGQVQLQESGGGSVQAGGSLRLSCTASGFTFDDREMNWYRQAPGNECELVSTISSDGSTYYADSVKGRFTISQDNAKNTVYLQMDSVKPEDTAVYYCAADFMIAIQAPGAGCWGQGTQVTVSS
2. hIL10Ra_VHH14 - hIL2Rg_VHH19, linker GGGS, tag Fc (bispecific antibody, not shown: a dimerising Fc or GST) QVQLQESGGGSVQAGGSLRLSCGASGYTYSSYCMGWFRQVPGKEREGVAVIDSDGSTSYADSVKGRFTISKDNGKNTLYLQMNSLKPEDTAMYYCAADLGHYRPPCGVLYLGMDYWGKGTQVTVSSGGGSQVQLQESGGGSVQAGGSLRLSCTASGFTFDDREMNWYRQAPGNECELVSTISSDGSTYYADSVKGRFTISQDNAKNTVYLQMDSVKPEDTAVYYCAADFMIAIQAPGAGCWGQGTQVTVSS
3. hIL10Ra_VHH14 - hIL2Rg_VHH19, linker GGSGGS, tag his (bispecific antibody, not shown: small tags and cut ends) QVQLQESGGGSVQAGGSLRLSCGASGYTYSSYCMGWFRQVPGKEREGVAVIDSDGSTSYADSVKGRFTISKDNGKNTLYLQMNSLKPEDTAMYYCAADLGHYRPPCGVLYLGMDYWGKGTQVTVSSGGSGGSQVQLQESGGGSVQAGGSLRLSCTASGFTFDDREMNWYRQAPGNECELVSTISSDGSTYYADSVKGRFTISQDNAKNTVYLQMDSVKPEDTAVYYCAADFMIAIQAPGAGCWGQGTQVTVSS
4. hIL10Ra_VHH14 - hIL2Rg_VHH19, linker GGGSGGGS, tag his (bispecific antibody, not shown: small tags and cut ends) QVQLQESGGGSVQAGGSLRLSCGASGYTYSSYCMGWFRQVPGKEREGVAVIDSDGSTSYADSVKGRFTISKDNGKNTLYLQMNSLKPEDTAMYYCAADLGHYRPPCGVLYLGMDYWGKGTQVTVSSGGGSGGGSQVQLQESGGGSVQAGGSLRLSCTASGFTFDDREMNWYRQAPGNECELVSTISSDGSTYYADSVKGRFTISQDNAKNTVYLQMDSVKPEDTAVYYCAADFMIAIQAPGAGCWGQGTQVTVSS
5. hIL10Ra_VHH14 - hIL2Rg_VHH19, linker GS, tag his (bispecific antibody, not shown: small tags and cut ends) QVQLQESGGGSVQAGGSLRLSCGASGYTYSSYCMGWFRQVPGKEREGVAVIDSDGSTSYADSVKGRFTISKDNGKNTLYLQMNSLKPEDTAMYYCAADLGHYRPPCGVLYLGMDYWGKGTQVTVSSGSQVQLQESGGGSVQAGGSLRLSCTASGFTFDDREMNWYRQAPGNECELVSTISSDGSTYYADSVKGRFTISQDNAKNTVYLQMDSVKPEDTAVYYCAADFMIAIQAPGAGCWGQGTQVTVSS

90100
104000
94700
95500
91700
